Biological target: Cytochrome P450 2C19 (Homo sapiens) (UniProt P33261)
Sequence (P33261 whole entry, looked up): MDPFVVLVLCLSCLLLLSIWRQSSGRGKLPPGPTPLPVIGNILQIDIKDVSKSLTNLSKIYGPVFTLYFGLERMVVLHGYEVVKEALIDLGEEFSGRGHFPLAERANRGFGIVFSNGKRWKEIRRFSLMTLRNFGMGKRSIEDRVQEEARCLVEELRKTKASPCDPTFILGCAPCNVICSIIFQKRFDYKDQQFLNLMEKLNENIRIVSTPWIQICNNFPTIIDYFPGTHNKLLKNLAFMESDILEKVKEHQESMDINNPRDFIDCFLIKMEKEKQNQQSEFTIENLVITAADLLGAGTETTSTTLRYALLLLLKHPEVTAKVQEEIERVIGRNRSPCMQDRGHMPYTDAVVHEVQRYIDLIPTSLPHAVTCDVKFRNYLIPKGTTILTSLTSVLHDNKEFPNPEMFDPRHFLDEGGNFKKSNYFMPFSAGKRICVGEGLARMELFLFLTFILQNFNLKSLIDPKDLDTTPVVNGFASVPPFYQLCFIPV
Assay: enhancers of cytochrome P450 2C19 turnover – biochemical, luminescence, primary screen (AID 1025);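 further: 0 = wells with 2.5 mM tranylcypromine and 1 = vehicle-only wells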
Conditions: recombinant CYP2C19, luciferin-H EGE luminescence; at 5 µM; stronger effect = higher value; 0 = fully inhibited enzyme, 1 = untreated enzyme
Among all 96,000 compounds or so, fewer than 10 were called active. These entries were drawn from the full list.
Observation Type: activation factor

Compound	Result Value
Cc1ccc(C(=O)N2CCN(C(=O)N3CCOCC3)CC2)cc1	0.9
COC(=O)CCSc1cc([N+](=O)[O-])cc2c1c(C1OCCS1)nn2-c1ccccc1 (stereo not drawn)	0.9
C(=N/N1CCN(c2ccccc2)CC1)/c1cccs1	0.5
CCCCCCSc1nsc(N)n1	0.5
CCN(CC)Cc1csc2ccc(Br)cc12	0.9
Cc1ccccc1NC(=O)C(C)c1ccc(-c2ccccc2)c(F)c1 (stereo not drawn)	0.9
CCCc1nnc(NC(=O)c2cccs2)s1	0.9
CC1=C(C(N)=O)C(c2sccc2C)n2nnnc2N1 (stereo not drawn)	0.9

----------
Molecular target: Cytochrome P450 2C19 (Homo sapiens) (UniProt P33261)
Experiment: enhancers of cytochrome P450 2C19 turnover – biochemical, luminescence, primary screen (AID 1025);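 further: 0 = wells with 2.5 mM tranylcypromine and 1 = vehicle-only wells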
Conditions: recombinant CYP2C19, luciferin-H EGE luminescence; at 5 µM; stronger effect = higher value; 0 = fully inhibited enzyme, 1 = untreated enzyme
Out of some 96,000 compounds screened, fewer than 10 were called active. A selection follows.
Observation Type: activation factor

Molecule	Target Under Test	Observation Type	Result Value
C=CCOc1cccc(CNn2cn[nH]c2=S)c1	Cytochrome P450 2C19 (Homo sapiens) (UniProt P33261)	activation factor	0.7
Cc1nnc(OCC(=O)NCCC2=CCCCC2)c2ccccc12	Cytochrome P450 2C19 (Homo sapiens) (UniProt P33261)	activation factor	0.4
CC(=O)N1Cc2ccccc2CC1C(=O)O (centres undefined)	Cytochrome P450 2C19 (Homo sapiens) (UniProt P33261)	activation factor	1.2
COc1ccccc1NC(=O)COc1ccc(C(=O)OCC(=O)N(C(C)C)C(C)C)cc1OC	Cytochrome P450 2C19 (Homo sapiens) (UniProt P33261)	activation factor	0.4
